Sourced from ChEMBL document CHEMBL1201862

system: LOX IMVI; assay: NCI tumour cell line growth inhibition, 48 h
Calls of active or inactive are those of the source. No stated cut-off is given here; in the data, active = GI50 up to about 1.1 µM and inactive = higher. Non-standard residues stand in square brackets, D forms with d. Residues, ends and D or L forms follow the SMILES beside them. ΔPro = O=C(O)[CH]1C=CCN1
assay_endpoint: GI50

INPUT: Param readout= GI50; system= LOX IMVI; entry= O=C(Nc1cccs1)c1c(O)[nH]c(=S)[nH]c1=O ; returns value.
OUTPUT: > 100 µM (inactive)

INPUT: Param readout= GI50; system= LOX IMVI; entry= NC(=O)N/N=C/C(/C=N/NC(N)=O)[N+](=O)[O-] ; returns value.
OUTPUT: > 100 µM (inactive)

INPUT: Param readout= GI50; system= LOX IMVI; entry= COC(=O)C(=Cc1cc(OC)c(OC)c(OC)c1-c1cc2c(cc1C(C)=O)OCO2)C(=O)OC ; returns value.
OUTPUT: 30.8 µM (inactive)

INPUT: Param readout= GI50; system= LOX IMVI; entry= C[C@H](NC(=O)c1ccc(CNC(=O)/C=C/c2cccc(Oc3ccccc3)c2)cc1)c1ccccc1 ; returns value.
OUTPUT: > 100 µM (inactive)

INPUT: Param readout= GI50; system= LOX IMVI; entry= COc1cc(/C=C2/C[C@H]3[C@@H]4CC=C5C[C@@H](O)CC[C@]5(C)[C@H]4CC[C@]3(C)NC2=O)cc(OC)c1OC ; returns value.
OUTPUT: 20 µM (inactive)

INPUT: Param readout= GI50; system= LOX IMVI; entry= COc1cc2c3cc1Oc1c(OC)c(OC)cc4c1C(Cc1ccc(O)c(c1)Oc1ccc(cc1)CC3N(C)CC2)N(C)CC4 (stereo not drawn) ; returns value.
OUTPUT: 58.7 µM (inactive)

INPUT: Param readout= GI50; system= LOX IMVI; entry= NC(CCC(=O)NC(CSC(=O)N(O)c1ccc(Br)cc1)C(=O)NCC(=O)O)C(=O)O (stereo not drawn) ; returns value.
OUTPUT: 61.5 µM (inactive)

INPUT: Param readout= GI50; system= LOX IMVI; entry= O=C(O)C1C=CCN1C(=O)C1C=CCN1C(=O)C1C=CCN1 (stereo not drawn) (H-[ΔPro]-[ΔPro]-[ΔPro]-OH; configuration not given here) ; returns value.
OUTPUT: > 100 µM (inactive)
